meta.source: patent US11667602B2

# System under test: human RXFP1 (Homo sapiens)
# Sequence (Q9HBX9 1-757): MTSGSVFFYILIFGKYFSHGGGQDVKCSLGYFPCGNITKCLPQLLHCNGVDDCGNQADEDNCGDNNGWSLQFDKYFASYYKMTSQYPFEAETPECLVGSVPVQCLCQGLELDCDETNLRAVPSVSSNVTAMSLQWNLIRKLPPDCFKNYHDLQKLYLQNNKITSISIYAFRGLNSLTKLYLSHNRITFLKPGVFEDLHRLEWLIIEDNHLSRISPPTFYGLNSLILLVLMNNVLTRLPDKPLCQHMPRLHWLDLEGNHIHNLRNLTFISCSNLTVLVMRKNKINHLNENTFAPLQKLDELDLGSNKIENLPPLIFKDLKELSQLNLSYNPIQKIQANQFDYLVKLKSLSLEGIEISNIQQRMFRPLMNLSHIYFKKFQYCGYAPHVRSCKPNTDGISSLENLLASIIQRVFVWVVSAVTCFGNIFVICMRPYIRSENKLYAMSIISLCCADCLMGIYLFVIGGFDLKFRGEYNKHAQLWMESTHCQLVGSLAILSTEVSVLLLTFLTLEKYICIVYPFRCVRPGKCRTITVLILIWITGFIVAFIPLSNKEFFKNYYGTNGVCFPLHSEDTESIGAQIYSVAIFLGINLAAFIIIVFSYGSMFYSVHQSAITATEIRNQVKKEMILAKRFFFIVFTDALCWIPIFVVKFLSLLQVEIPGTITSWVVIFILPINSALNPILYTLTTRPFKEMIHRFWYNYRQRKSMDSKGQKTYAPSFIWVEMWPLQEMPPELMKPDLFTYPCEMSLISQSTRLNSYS
# Experimental details: RXFP1 Hu cAMP (Test A)
# Type: cell-based
# Set-up: expressed in transfected cells; host or cells: Jump-In T-REx CHO-K1 cells (ThermoFisher), induced with 10 ng/ml doxycycline for 24 h
# Conditions used: RXFP1 Hu cAMP
// Test A Sinf lookup, one value per entry
Give the number; % is assumed, so skip it.

Worked set:
Give measured Test A Sinf for COc1cc(F)c(-c2ccc(CCC(=O)O)cc2)cc1C(=O)N[C@@H]1[C@H]2CC[C@H](C2)[C@@H]1C(=O)Nc1cccc(S(=O)(=O)C(F)(F)F)c1 (human RXFP1 (Homo sapiens)). 111

Give measured Test A Sinf for COc1cc(C#N)c(O[C@H]2CC[C@@](C)(C(=O)O)CC2)cc1C(=O)N[C@@H]1[C@H]2CC[C@H](C2)[C@@H]1C(=O)NCC1CCCCCC1 (human RXFP1 (Homo sapiens)). 114

Give measured Test A Sinf for COc1cc(F)c(O[C@H]2CC[C@@](C)(C(=O)O)CC2)cc1C(=O)N[C@@H]1CCC[C@@H]1C(=O)Nc1ccc(F)c(S(F)(F)(F)(F)F)c1 (human RXFP1 (Homo sapiens)). 105

Next:
Give measured Test A Sinf for COC[C@]1(C(=O)O)CC[C@H](Oc2cc(C(=O)N[C@@H]3[C@@H]4CC[C@@H](C4)[C@@H]3C(=O)Nc3cccc(S(=O)(=O)C(F)(F)F)c3)c(OC)cc2F)CC1 (human RXFP1 (Homo sapiens)). 100

Give measured Test A Sinf for COc1cc(F)c(OC2CCC(CO)(C(=O)O)CC2)cc1C(=O)N[C@H]1C[C@H](OC)C[C@H]1C(=O)NCC(C)(C)C (relative stereo) (human RXFP1 (Homo sapiens)). 94

###

# Experimental details: Human Plasma Protein Binding (Test B)
# Type: in vitro ADME
# Conditions used: fraction unbound (fu)
Quantity kind: Test B Human Plasma Protein Binding (% free)

Worked set:
Hello, please tell me recorded Test B Human Plasma Protein Binding (% free) for this one: COc1cc(C#N)c(O[C@H]2CC[C@@](C)(C(=O)O)CC2)cc1C(=O)N[C@H]1C(C(=O)NCC(C)(C)C)[C@@H]2CC[C@H]1C2 (stereo partly shown) 12 % free

Hello, please tell me recorded Test B Human Plasma Protein Binding (% free) for this one: COc1cc(F)c(O[C@H]2CC[C@H](NS(C)(=O)=O)CC2)cc1C(=O)N[C@@H]1[C@H]2CC[C@H](C2)[C@@H]1C(=O)Nc1cccc(S(=O)(=O)C(F)(F)F)c1 0.32 % free

Next:
Hello, please tell me recorded Test B Human Plasma Protein Binding (% free) for this one: COc1cc(F)c(O[C@H]2CC[C@@H](C(=O)O)CC2)cc1C(=O)N[C@@H]1[C@H]2CC[C@H](C2)[C@@H]1C(=O)NC1CCCCC1 11 % free

Hello, please tell me recorded Test B Human Plasma Protein Binding (% free) for this one: COc1cc(F)c(O[C@H]2CC[C@@H](C(=O)O)CC2)cc1C(=O)N[C@@H]1[C@H]2CC[C@H](C2)[C@@H]1C(=O)Nc1ccc(Br)c(C(F)(F)F)c1 0.24 % free

Hello, please tell me recorded Test B Human Plasma Protein Binding (% free) for this one: COc1cc(C#N)c(O[C@H]2CC[C@@](C)(C(=O)O)CC2)cc1C(=O)N[C@@H]1[C@H]2CC[C@H](C2)[C@@H]1C(=O)NCC(F)(F)C(F)(F)F 12 % free

Hello, please tell me recorded Test B Human Plasma Protein Binding (% free) for this one: COc1cc(C#N)c(O[C@H]2CC[C@@](C)(C(=O)O)CC2)cc1C(=O)N[C@@H]1[C@H]2CC[C@H](C2)[C@@H]1C(=O)NCC1(OC)CC1 31 % free

Hello, please tell me recorded Test B Human Plasma Protein Binding (% free) for this one: COc1cc(C#N)c(O[C@H]2CC[C@@](C)(C(=O)O)CC2)cc1C(=O)N[C@@H]1[C@@H]2CC[C@@H](C2)[C@@H]1C(=O)NCC1(C)CCC1 3.4 % free

Hello, please tell me recorded Test B Human Plasma Protein Binding (% free) for this one: COc1cc(F)c(O[C@H]2CC[C@@](C)(C(=O)O)CC2)cc1C(=O)N[C@@H]1[C@H]2CC[C@H](C2)[C@@H]1C(=O)N[C@@H]1CCCN(S(=O)(=O)C(F)(F)F)C1 6.7 % free

Hello, please tell me recorded Test B Human Plasma Protein Binding (% free) for this one: COc1cc(C#N)c(O[C@H]2CC[C@@](C)(C(=O)O)CC2)cc1C(=O)NC1C2CCC(O2)C1C(=O)NCC1(C)CCC1 (single isomer, unassigned) 7.1 % free

Hello, please tell me recorded Test B Human Plasma Protein Binding (% free) for this one: COc1cc(F)c(O[C@H]2CC[C@@](C)(C(=O)O)CC2)cc1C(=O)N[C@@H]1[C@H]2CC[C@H](C2)[C@@H]1C(=O)NCC1(C)CC1 8 % free

Hello, please tell me recorded Test B Human Plasma Protein Binding (% free) for this one: COc1cc(F)c(-c2ccc(CC(=O)O)cc2)cc1C(=O)N[C@H]1[C@@H](C(=O)Nc2cccc(S(=O)(=O)C(F)(F)F)c2)[C@@H]2C=C[C@H]1C2 (racemic) <0.30 % free

Hello, please tell me recorded Test B Human Plasma Protein Binding (% free) for this one: COc1cc(F)c(O[C@H]2CC[C@@](C)(C(=O)O)CC2)cc1C(=O)Nc1cc(Cl)ccc1C(=O)NCC1(C)CCC1 0.49 % free

###

# Experimental details: Solubility (Test F)
# Format: physicochemical
# Conditions used: arithmetic mean if run multiple times
Please use TRUE whenever solubility is not below 900 µM, and FALSE whenever it is.

Tell me whether solubility is at least 900 µM here: COc1cc(F)c(O[C@H]2CC[C@@](C)(C(=O)O)CC2)cc1C(=O)N[C@@H]1CCC[C@@H]1C(=O)NCC1(CF)CC1 [Example 56] TRUE

Tell me whether solubility is at least 900 µM here: COc1cc(C#N)c(O[C@H]2CC[C@@](C)(C(=O)O)CC2)cc1C(=O)NC1C2CCC(O2)C1C(=O)NCC1(C)CCC1 (single isomer, unassigned) [Example 534] TRUE

###

# Experimental details: Human Plasma Protein Binding (Test B)
# Format: in vitro ADME
# Conditions used: fraction unbound (fu)
Quantity kind: Test B Human Plasma Protein Binding (% free)
Give the number; % free is assumed, so skip it.

Worked set:
Hello, please tell me recorded Test B Human Plasma Protein Binding (% free) for this one: COc1cc(C#N)c(O[C@H]2CC[C@@](C)(C(=O)O)CC2)cc1C(=O)N[C@@H]1[C@H]2CC[C@H](C2)[C@@H]1C(=O)NCC(C)(C)C(F)(F)F 12

Hello, please tell me recorded Test B Human Plasma Protein Binding (% free) for this one: COc1cc(Br)c(O[C@H]2CC[C@@H](C(=O)O)CC2)cc1C(=O)N[C@@H]1[C@H]2CC[C@H](C2)[C@@H]1C(=O)Nc1cccc(S(=O)(=O)C(F)(F)F)c1 0.54

Hello, please tell me recorded Test B Human Plasma Protein Binding (% free) for this one: COc1cc(F)c(O[C@H]2CC[C@@](C)(C(=O)O)CC2)cc1C(=O)NC1CCOCC1C(=O)Nc1cccc(S(=O)(=O)C(F)(F)F)c1 (single isomer, unassigned) 2.1

Hello, please tell me recorded Test B Human Plasma Protein Binding (% free) for this one: COc1cc(NC(=O)[C@H]2[C@@H]3CC[C@@H](C3)[C@H]2NC(=O)c2cc(O[C@H]3CC[C@@H](C(=O)O)CC3)c(F)cc2OC)cc(C(F)(F)F)c1 0.53

Hello, please tell me recorded Test B Human Plasma Protein Binding (% free) for this one: CC1(CNC(=O)[C@H]2[C@@H]3CC[C@@H](C3)[C@H]2NC(=O)c2cc(O[C@H]3CC[C@@](C)(C(=O)O)CC3)c(Cl)cc2F)CCC1 0.87

Next:
Hello, please tell me recorded Test B Human Plasma Protein Binding (% free) for this one: COc1cc(F)c(C[C@H]2CC[C@@](C)(C(=O)O)CC2)cc1C(=O)N[C@@H]1[C@H]2CC[C@H](C2)[C@@H]1C(=O)NCC1(C)CCC1 0.29

Hello, please tell me recorded Test B Human Plasma Protein Binding (% free) for this one: COc1cc(F)c(O[C@H]2CC[C@@](CO)(C(=O)O)CC2)cc1C(=O)N[C@@H]1[C@H]2CC[C@H](C2)[C@@H]1C(=O)NCC1(C(F)(F)F)CCC1 7.8

Hello, please tell me recorded Test B Human Plasma Protein Binding (% free) for this one: COc1cc(F)c(O[C@H]2CC[C@@](C)(C(=O)O)CC2)cc1C(=O)N[C@@H]1CC[C@@H]1C(=O)Nc1ccc(F)c(C(F)(F)F)c1 0.50

Hello, please tell me recorded Test B Human Plasma Protein Binding (% free) for this one: COc1cc(C#N)c(O[C@H]2CC[C@@](C)(C(=O)O)CC2)cc1C(=O)N[C@@H]1[C@H]2CC[C@H](C2)[C@@H]1C(=O)NC12CC(C1)C2 16

Hello, please tell me recorded Test B Human Plasma Protein Binding (% free) for this one: CC1(CNC(=O)[C@H]2[C@@H]3CC[C@@H](C3)[C@H]2NC(=O)c2cc(O[C@H]3CC[C@@](C)(C(=O)O)CC3)c(F)cc2OC(F)F)CCC1 3.5

Hello, please tell me recorded Test B Human Plasma Protein Binding (% free) for this one: COc1cc(F)c(O[C@H]2CC[C@@H](C(=O)O)CC2)cc1C(=O)N[C@@H]1CCC[C@@H]1C(=O)Nc1ccc(F)c(C(F)(F)F)c1 1.8

Hello, please tell me recorded Test B Human Plasma Protein Binding (% free) for this one: COc1cc(F)c(O[C@H]2CC[C@@](F)(C(=O)O)CC2)cc1C(=O)N[C@@H]1[C@H]2CC[C@H](C2)[C@@H]1C(=O)Nc1cccc(S(=O)(=O)C(F)(F)F)c1 1.2

Hello, please tell me recorded Test B Human Plasma Protein Binding (% free) for this one: COc1cc(F)c(O[C@H]2CC[C@@H](C(=O)O)CC2)cc1C(=O)N[C@@H]1CCC[C@@H]1C(=O)Nc1cccc(S(=O)(=O)C(F)(F)F)c1 1.9

Hello, please tell me recorded Test B Human Plasma Protein Binding (% free) for this one: COc1cc(F)c(O[C@H]2CC[C@@H](C(=O)O)CC2)cc1C(=O)N[C@@H]1[C@H]2CC[C@H](C2)[C@@H]1C(=O)Nc1cc(C)cc(C(F)(F)F)c1 0.64
